- System: heart rate
- Assay Explanation: Change in heart rate (Experiment 2(b))
- Assay type: in vivo, beagle (anesthetized)
- Experimental Context: Table 4; Experiment 2

Compound	Percent change in heart rate
CCOC(=O)CCCN1CCN(c2ccccc2OC)CC1 [F, reference compound]	11.2%
CCOC(=O)CCCCCN1CCN(c2ccccc2OC)CC1	-1.6%
COC(=O)CCCCCCN1CCN(c2ccccc2OC)CC1	-2.2%
CCOC(=O)CCCCN1CCN(c2ccccc2OC)CC1	13.2%
CCOC(=O)CCCCCCN1CCN(c2ccccc2OC)CC1	-9.6%
COc1ccccc1N1CCN(CCCCCCCO)CC1 [D, reference compound]	-9.1%
COc1ccccc1N1CCN(CCCCCCO)CC1 [C, reference compound]	8.1%
COc1ccccc1N1CCN(CCCCCO)CC1 [B, reference compound]	9.9%
CCOC(=O)CCCCCCN1CCN(c2ccccc2OC(C)C)CC1	-4.0%
CCOC(=O)CCN1CCN(c2ccccc2OC)CC1 [E, reference compound]	16.8%
